TARGET_ENTITY: PI3K-p110β (Homo sapiens, UniProt P42338)
Sequence (P42338 whole entry, one chain of several): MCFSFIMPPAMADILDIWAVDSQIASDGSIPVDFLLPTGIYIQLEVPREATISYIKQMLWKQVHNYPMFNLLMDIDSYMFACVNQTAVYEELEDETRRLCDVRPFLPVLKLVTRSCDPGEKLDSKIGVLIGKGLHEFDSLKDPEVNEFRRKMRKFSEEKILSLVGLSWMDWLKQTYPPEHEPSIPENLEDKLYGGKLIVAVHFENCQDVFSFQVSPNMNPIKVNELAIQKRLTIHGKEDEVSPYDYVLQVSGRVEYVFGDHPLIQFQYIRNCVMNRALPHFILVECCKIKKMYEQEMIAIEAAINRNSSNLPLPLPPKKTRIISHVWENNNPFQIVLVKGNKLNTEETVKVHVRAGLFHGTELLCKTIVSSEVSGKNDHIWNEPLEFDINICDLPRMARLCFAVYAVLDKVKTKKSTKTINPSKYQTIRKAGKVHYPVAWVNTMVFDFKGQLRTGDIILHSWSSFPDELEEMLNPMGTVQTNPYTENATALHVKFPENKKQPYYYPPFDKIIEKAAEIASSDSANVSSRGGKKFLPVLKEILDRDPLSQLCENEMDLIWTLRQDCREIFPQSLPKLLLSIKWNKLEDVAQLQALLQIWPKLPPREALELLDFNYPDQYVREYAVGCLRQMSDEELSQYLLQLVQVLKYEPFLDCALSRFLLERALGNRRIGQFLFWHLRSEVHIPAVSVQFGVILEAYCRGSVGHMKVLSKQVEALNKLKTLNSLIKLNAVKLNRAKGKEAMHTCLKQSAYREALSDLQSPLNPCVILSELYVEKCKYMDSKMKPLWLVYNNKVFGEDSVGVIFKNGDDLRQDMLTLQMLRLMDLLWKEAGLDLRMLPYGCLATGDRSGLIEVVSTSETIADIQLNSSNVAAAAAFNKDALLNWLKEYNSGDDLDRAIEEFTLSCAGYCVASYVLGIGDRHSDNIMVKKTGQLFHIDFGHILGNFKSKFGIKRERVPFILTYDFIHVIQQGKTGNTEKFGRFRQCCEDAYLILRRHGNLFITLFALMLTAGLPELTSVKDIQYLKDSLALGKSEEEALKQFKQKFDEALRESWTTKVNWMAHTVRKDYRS
PROCEDURE_TEXT: Biochemical data, PI3K binding potency, PI3K-p110β
VALUE_KIND: IC50

q: What value of IC50 has been reported for the following compound? CN(C)CCCC(=O)Nc1cc(-c2cccc3[nH]ccc23)nc(N2CCOCC2)c1 [B]
a: 247 nM

* * *

Can you tell me IC50 for the items I'm about to list?
TARGET_ENTITY: PI3K-p110δ (Homo sapiens, UniProt O00329)
Sequence (O00329 whole entry, one chain of several): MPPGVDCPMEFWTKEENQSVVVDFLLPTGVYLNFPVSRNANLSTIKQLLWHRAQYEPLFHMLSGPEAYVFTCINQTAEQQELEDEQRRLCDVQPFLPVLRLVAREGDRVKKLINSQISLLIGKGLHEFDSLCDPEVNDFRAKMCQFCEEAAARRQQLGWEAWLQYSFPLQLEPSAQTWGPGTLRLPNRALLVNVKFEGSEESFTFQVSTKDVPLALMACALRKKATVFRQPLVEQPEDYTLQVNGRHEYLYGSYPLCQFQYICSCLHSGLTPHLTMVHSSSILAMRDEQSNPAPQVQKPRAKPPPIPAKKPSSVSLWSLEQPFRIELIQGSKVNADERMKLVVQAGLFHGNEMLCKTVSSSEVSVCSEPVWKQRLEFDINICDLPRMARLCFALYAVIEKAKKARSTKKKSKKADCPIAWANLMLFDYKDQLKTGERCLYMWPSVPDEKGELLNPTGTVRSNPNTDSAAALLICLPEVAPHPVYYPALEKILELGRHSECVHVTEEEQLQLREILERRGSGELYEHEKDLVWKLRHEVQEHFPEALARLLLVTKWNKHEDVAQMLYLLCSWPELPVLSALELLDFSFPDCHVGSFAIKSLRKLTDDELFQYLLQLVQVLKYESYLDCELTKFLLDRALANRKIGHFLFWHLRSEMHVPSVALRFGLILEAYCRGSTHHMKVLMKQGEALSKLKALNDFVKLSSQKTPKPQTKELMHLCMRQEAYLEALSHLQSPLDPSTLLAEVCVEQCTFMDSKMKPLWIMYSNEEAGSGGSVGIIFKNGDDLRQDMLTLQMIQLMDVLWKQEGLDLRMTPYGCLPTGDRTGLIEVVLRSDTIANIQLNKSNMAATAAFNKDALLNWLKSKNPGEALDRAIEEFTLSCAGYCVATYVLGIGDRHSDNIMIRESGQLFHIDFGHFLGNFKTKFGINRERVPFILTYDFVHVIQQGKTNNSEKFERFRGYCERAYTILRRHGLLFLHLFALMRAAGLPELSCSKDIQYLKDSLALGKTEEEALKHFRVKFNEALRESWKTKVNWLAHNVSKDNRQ
PROCEDURE_TEXT: Biochemical data, PI3K binding potency, PI3K-p110δ
Note: unit nM is implicit; provide only the numeric part.

q: What value of IC50 has been reported for the following molecule? O=C(CCCN1CCCC1)Nc1cc(-c2cccc3[nH]ccc23)nc(N2CCOCC2)c1
a: 953

q: What value of IC50 has been reported for the following molecule? CN(C)CCCC(=O)Nc1cc(-c2cccc3[nH]ccc23)nc(N2CCOCC2)c1
a: 177

* * *

TARGET_ENTITY: PI3K-p110α (Homo sapiens, UniProt P42336)
Sequence (P42336 whole entry): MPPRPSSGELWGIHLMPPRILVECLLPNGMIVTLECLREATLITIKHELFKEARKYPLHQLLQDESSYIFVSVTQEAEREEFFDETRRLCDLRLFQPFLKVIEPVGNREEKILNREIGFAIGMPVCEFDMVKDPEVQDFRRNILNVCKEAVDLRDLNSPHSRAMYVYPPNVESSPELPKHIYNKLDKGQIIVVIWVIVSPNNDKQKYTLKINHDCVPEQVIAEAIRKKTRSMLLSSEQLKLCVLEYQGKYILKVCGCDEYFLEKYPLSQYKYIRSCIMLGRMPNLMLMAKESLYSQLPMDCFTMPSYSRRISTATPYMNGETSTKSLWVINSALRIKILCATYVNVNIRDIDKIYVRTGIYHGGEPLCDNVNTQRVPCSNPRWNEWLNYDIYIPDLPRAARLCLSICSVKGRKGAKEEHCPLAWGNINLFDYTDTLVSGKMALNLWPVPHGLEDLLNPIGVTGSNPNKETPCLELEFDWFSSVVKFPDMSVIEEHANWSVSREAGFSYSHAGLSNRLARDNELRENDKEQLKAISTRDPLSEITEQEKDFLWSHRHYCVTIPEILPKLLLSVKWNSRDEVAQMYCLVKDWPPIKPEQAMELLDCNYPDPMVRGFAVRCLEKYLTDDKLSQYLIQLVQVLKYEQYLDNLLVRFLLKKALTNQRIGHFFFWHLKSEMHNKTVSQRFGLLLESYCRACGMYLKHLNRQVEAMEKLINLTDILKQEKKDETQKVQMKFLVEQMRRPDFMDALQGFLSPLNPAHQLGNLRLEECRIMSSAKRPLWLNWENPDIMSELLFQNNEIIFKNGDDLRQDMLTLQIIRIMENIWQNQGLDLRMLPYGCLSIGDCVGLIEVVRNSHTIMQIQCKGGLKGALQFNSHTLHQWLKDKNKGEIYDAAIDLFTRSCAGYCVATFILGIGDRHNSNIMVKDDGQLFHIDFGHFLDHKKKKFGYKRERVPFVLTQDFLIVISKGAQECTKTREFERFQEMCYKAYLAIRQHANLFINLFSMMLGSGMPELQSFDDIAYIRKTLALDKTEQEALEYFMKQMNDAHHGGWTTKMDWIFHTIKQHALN
Sequence (P27986 whole entry partner): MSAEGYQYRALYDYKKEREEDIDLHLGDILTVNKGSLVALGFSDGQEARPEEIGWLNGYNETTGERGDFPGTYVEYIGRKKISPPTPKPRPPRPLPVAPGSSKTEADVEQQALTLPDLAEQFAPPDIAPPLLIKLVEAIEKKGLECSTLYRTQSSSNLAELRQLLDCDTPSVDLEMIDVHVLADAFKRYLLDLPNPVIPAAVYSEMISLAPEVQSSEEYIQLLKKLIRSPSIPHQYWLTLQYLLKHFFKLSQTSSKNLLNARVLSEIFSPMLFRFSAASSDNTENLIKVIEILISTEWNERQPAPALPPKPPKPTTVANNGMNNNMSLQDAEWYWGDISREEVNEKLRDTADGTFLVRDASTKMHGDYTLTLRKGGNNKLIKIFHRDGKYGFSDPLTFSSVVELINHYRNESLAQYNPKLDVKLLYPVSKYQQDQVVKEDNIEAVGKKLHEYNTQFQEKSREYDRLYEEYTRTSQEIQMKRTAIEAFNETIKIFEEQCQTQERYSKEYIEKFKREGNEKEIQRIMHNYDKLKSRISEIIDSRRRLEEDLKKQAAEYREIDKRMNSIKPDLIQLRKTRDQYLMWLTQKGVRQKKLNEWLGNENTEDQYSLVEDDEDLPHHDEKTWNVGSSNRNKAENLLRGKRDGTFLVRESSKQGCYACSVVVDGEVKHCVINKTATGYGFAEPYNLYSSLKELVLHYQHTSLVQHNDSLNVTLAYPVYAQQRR
PROCEDURE_TEXT: Biochemical data, PI3K binding potency, PI3K-p110α
VALUE_KIND: IC50

q: What value of IC50 has been reported for the following compound? CN(C)CCCC(=O)Nc1cc(-c2cccc3[nH]ccc23)nc(N2CCOCC2)c1 [B]
a: ≥ 10000 nM

Hello, the source for this data is patent US10035785B2, in case you need it.
